# log10 of CC50 at 48 h per record follows
- ASSAY_TEXT: Cytotoxicity against human A549 cells assessed as reduction in cell viability after 48 hrs by alamar blue assay
- Type: cell-based
ENDPOINT_NAME: log10 of CC50 at 48 h (log10 of the value in µM)

> print(dat)
                               record.smiles  numeric.value
 1  CC(C)[C@H](NC(=O)c1cc(Cl)ccc1O)C(=O)Nc1cc(F)cc(C(F)(F)F)c1           1.63
 2  O=C(N[C@@H](Cc1ccccc1)C(=O)Nc1cc(C(F)(F)F)cc(C(F)(F)F)c1)c1cc(Cl)ccc1O           1.25
 3  O=C(NCc1ccc([N+](=O)[O-])cc1)c1cc(Cl)ccc1O           2.24
 4  CS(=O)(=O)Nc1ccc(Cl)cc1C(=O)NCC(=O)Nc1ccc([N+](=O)[O-])cc1Cl           2.15
 5  C[C@H](NC(=O)c1cc(Cl)ccc1O)C(=O)Nc1ccc([N+](=O)[O-])cc1Cl           2.00
 6   O=C(NCc1ccc(C(F)(F)F)cc1F)c1cc(Cl)ccc1O           1.66
 7  O=C(Nc1cc(F)cc(C(F)(F)F)c1)c1cc(Cl)ccc1O           2.08
 8  CC(C)[C@H](NC(=O)c1cc(Cl)ccc1NS(C)(=O)=O)C(=O)Nc1ccc([N+](=O)[O-])cc1Cl           2.24
 9  O=C(Nc1cc(C(F)(F)F)cc(C(F)(F)F)c1)c1cc(Cl)ccc1O           0.61
10       C[C@H](NC(=O)c1cc(Cl)ccc1O)c1ccccc1           2.30
11  O=C(CNC(=O)c1cc(Cl)ccc1O)Nc1ccc([N+](=O)[O-])cc1Cl           2.11
12  O=C(Nc1cc([N+](=O)[O-])ccc1F)c1cc(Cl)ccc1O           0.91
13          O=C(NCc1ccc(Cl)cc1)c1cc(Cl)ccc1O           1.43
14  O=C(NCc1cc(F)cc(C(F)(F)F)c1)c1cc(Cl)ccc1O           1.56
15  CC(C)(C)OC(=O)CC[C@H](NC(=O)c1cc(Cl)ccc1O)C(=O)Nc1ccc([N+](=O)[O-])cc1Cl           1.36
16  O=C(Nc1ccc([N+](=O)[O-])cc1F)c1cc(Cl)ccc1O           1.04
17         O=C(NCc1ccc(F)cc1Cl)c1cc(Cl)ccc1O           1.49
18      O=C(Nc1cc(F)cc(C(F)(F)F)c1)c1ccccc1O           1.21
19   O=C(Nc1cc(F)cc(C(F)(F)F)c1)c1cccc(Cl)c1           1.59
20  O=C(Cc1cc(Cl)ccc1O)Nc1cc(F)cc(C(F)(F)F)c1           1.37
21  CC(C)[C@H](NC(=O)c1cc(Cl)ccc1O)C(=O)Nc1ccc([N+](=O)[O-])cc1Cl           2.30
22  Cc1ccc(O)c(C(=O)Nc2cc(F)cc(C(F)(F)F)c2)c1           1.18
23  O=C(N[C@H](Cc1ccccc1)C(=O)Nc1ccc([N+](=O)[O-])cc1Cl)c1cc(Cl)ccc1O           1.89
24  CC(C)[C@H](NC(=O)c1cc(Cl)ccc1O)C(=O)Nc1cc(C(F)(F)F)cc(C(F)(F)F)c1           1.49
25      C[C@@H](NC(=O)c1cc(Cl)ccc1O)c1ccccc1           1.93
26  O=C(Nc1cc(F)cc(C(F)(F)F)c1)c1ccc(Cl)cc1O           1.31
27           Cc1ccc(CNC(=O)c2cc(Cl)ccc2O)cc1           1.94
28    O=C(NCc1ccc(C(F)(F)F)cc1)c1cc(Cl)ccc1O           1.38
29  O=C(NCc1ccc([N+](=O)[O-])cc1Cl)c1cc(Cl)ccc1O           1.71
30        O=C(NCc1ccc(Cl)cc1Cl)c1cc(Cl)ccc1O           1.49
31  C[C@@H](NC(=O)c1cc(Cl)ccc1O)c1ccc(Cl)cc1           1.49
32  O=C(N[C@@H](Cc1ccccc1)C(=O)Nc1ccc([N+](=O)[O-])cc1Cl)c1cc(Cl)ccc1O           1.18
33  CC(C)[C@H](NC(=O)c1cc(Cl)ccc1O)C(=O)Nc1ccc(F)c(F)c1           1.98
34          O=C(NCCc1ccc(F)cc1)c1cc(Cl)ccc1O           2.19
35         O=C(Nc1ccc(F)c(F)c1)c1cc(Cl)ccc1O           0.90
36  O=C(NCc1ccc(C(F)(F)F)c(F)c1)c1cc(Cl)ccc1O           1.35
37  CC[C@@H](C)[C@H](NC(=O)c1cc(Cl)ccc1O)C(=O)Nc1ccc([N+](=O)[O-])cc1Cl           1.31
